# system.name: T1, IL-15Rα on CTLL-2 cells (murine (CTLL-2 murine cell line), UniProt Q60819 33-263)
# T1 sequence (looked up): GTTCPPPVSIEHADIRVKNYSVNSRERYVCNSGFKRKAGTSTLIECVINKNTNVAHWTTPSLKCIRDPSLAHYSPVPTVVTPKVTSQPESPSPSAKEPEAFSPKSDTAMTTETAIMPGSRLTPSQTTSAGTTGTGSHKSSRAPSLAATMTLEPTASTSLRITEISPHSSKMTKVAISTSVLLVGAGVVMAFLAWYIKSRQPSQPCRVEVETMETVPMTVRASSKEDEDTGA
# assay.procedure: cell-based or functional assay
No end group written: not given here.
Label class 1 when IC50 (µM), IL-15-induced (300 pg/mL) proliferation of the CTLL-2 cell line, MTT is strictly below 100 µM; at or above that, label class 0.

KVTAAKCFLL-NH2	class 0
KVTAMKCFLL-NH2 [KVTAMKCFLL (IL-15 antagonistic peptide of patent application No. WO2006/029578)]	class 0
KVAAMKCFLL-NH2	class 0

Now consider the entry below.
q: A record lists KATAMKCFLL-NH2 . Is its IC50 (µM), IL-15-induced (300 pg/mL) proliferation of the CTLL-2 cell line, MTT below 100 µM?
a: class 0
